Assay: growth inhibitors of yeast BB579 in restrictive medium, primary screen, yeast lifespan-shortening project, S. cerevisiae (AID 804)
Settings: OD615, 48 h, at 10 µM, active compounds read high
The whole screen tested about 140,000 compounds, of which about 710 (0.51%) were called active. What follows is part of a selection rich in actives, with near analogues and random picks from the rest.
Observable: inhibition (%)
Field format: number, assumed %, no unit text.

INSERT INTO assay_data (molecule, assay_value) VALUES
  ('CCOC(=O)c1sc2nc(C)nc(SCC(N)=O)c2c1C', -20.9),
  ('Cn1c(CNC(=O)c2ccccc2F)nnc1SCc1ccc(F)cc1', 6.65),
  ('C=CCN(CC=C)S(=O)(=O)c1ccc(C(=O)Nc2nc3c(s2)CCc2ccccc2-3)cc1', -67.9),
  ('CCOC(=O)c1sc(NC(=O)COc2ncnc3ccccc23)c(C(=O)OCC)c1C', -43.9),
  ('CC(C)(C)C1C/C(=C/c2ccco2)C(=O)/C(=C/c2ccco2)C1 (stereo not given)', -19.6);

# input molecule: Cc1cc(/C=C2\SC(=Nc3ccc(N4CCOCC4)cc3)N(C)C2=O)c(C)n1-c1cccnc1 ; wanted: its inhibition -7.27

# input molecule: Cc1csc(=Nc2ccccc2)n1CCO ; wanted: its inhibition -3.94

# input molecule: O=C(CN1CCN(c2ccc(O)cc2)CC1)Nc1cc(S(=O)(=O)N2CCOCC2)ccc1Cl ; wanted: its inhibition -37.9

====

Test: growth inhibitors of yeast BB579 in restrictive medium, primary screen, yeast lifespan-shortening project, S. cerevisiae (AID 804)
Settings: OD615, 48 h, at 10 µM, active compounds read high
About 710 (0.51%) of roughly 140,000 compounds were called active. The list comes from a sample in which actives are over-represented; it also holds close analogues and randomly drawn compounds.
Observable: inhibition (%)
Field format: number, assumed %, no unit text.

INSERT INTO measurements (chem_smiles, assay_value) VALUES
  ('Cc1cc(Cl)ccc1NC(=S)N1CCC(C(N)=O)(N2CCCCC2)CC1', 1.37),
  ('COc1cccc(NC(=S)NC(=O)c2c(Cl)c(C)nn2C)c1', -62.5),
  ('S=C(NCc1ccc(Cl)cc1)NC1CCCCC1', -27.3),
  ('CC(=O)c1c(N2CCN(c3ccc(F)cc3)CC2)nc(=S)n(-c2ccccc2)c1C', -54.2),
  ('COc1ccc(/C=C/C(=O)c2ccc(OC)cc2O)cc1', -54.2);

# input compound: COc1ccc(/C=C/C(=O)c2cc(Br)ccc(=O)c2O)cc1 ; wanted: its inhibition 96

# input compound: Cc1ncc(CC(=O)n2cc(C(=O)c3cc(Cl)ccc3O)cn2)s1 ; wanted: its inhibition 68.2

# input compound: COc1cc(/C=C/C(=O)OCC(=O)Nc2cccc(Oc3ccccc3)c2)ccc1O ; wanted: its inhibition -29.9

# input compound: O=C(Cc1coc2ccc3ccccc3c12)NCc1cccs1 ; wanted: its inhibition -8.63

# input compound: CCOc1cc(N2CCOCC2)c(OCC)cc1NC(=O)COc1cccc2cccnc12 ; wanted: its inhibition 67.1

# input compound: O=C(Nc1ccc2ccccc2c1)/C(=C\c1ccc2c(c1)OCO2)NC(=O)c1ccco1 ; wanted: its inhibition 6.72

====

Assay: growth inhibitors of yeast BB579 in restrictive medium, primary screen, yeast lifespan-shortening project, S. cerevisiae (AID 804)
Conditions: OD615, 48 h, at 10 µM, active compounds read high
The campaign covered roughly 140,000 compounds. About 710 (0.51%) were called active. This excerpt belongs to a sample that is enriched for actives.
Each record here notes measured inhibition.
Field format: number, assumed %, no unit text.

INSERT INTO assay_data (compound, observable, value_unit, assay_value) VALUES
  ('C#CCCCc1nc2ccccc2c(=O)n1N', 'inhibition', '%', -33.7);

# input compound: COc1ccc(S(=O)(=O)N2CN(CCc3ccc(OC)c(OC)c3)c3nc4ccccc4nc32)cc1 ; wanted: its inhibition -25.7

# input compound: Cc1c(Cl)c([N+](=O)[O-])nn1CCCC(=O)Nc1cc(Cl)ccc1Cl ; wanted: its inhibition 2.39

# input compound: Cc1cc2oc(=O)cc(CN3CCN(S(=O)(=O)c4cccs4)CC3)c2cc1C(C)C ; wanted: its inhibition -20.6

# input compound: CCOC(=O)c1ccccc1C(=O)N1CCOCCOCCOCC1 ; wanted: its inhibition -13.3

# input compound: Cc1ccc(OC(=O)CCC(=O)Nc2ccc(Br)cc2)cc1 ; wanted: its inhibition 3.42

# input compound: O=C(COC(=O)/C=C/c1cccc(Cl)c1)NCCc1ccccc1 ; wanted: its inhibition -16.6

# input compound: COCC(=O)Nc1cc(C(=O)OC)cc(C(=O)OC)c1 ; wanted: its inhibition 6.64

# input compound: CCC(=O)Nc1c(S(=O)(=O)c2ccccc2)c2nc3ccccc3nc2n1Cc1ccccc1 ; wanted: its inhibition -16.3

====

Test: growth inhibitors of yeast BB579 in restrictive medium, primary screen, yeast lifespan-shortening project, S. cerevisiae (AID 804)
Settings: OD615, 48 h, at 10 µM, active compounds read high
In all, about 140,000 compounds went through this assay and about 710 (0.51%) were called active. This excerpt belongs to a sample that is enriched for actives.
Each record here notes measured inhibition.
Field format: number, assumed %, no unit text.

Would you please look over these solved cases?
INSERT INTO measurements (molecule, value_unit, assay_value) VALUES
  ('CCOC(=O)C1CCN(C(=O)/C=C/c2cc(OC)c(OC)c(OC)c2)CC1', '%', -12.6),
  ('CC(=O)NC1=NN(C(C)=O)C(C)(c2ccc(C)cc2)S1 (configuration not stated)', '%', -33.1),
  ('CCCCC1N2CC3([N+](=O)[O-])CN1CC([N+](=O)[O-])(C2)C3(C)C (configuration not stated)', '%', -27.8);

# input molecule: O=C(Nc1nnc(C2CC2)s1)c1ccccn1 ; wanted: its inhibition 62

# input molecule: COc1ccc(-c2[nH]ncc2/C=N/NC(=O)c2cc(Br)ccc2O)c(OC)c1 ; wanted: its inhibition -15.9

# input molecule: Cc1cccc(NC(=O)Cn2c(=O)n(Cc3ccccc3)c(=O)c3c(C)c(C)sc32)c1 ; wanted: its inhibition -27.1

# input molecule: O=c1[nH]n(-c2cccc(Cl)c2)c2ncccc12 ; wanted: its inhibition -63.7

# input molecule: N=c1oc2ccccc2cc1C(=O)N/N=C/c1ccccc1 ; wanted: its inhibition -35.6

# input molecule: CNc1ccc(NC(C)=O)cc1[N+](=O)[O-] ; wanted: its inhibition -4.52

====

Experiment: growth inhibitors of yeast BB579 in restrictive medium, primary screen, yeast lifespan-shortening project, S. cerevisiae (AID 804)
Details: OD615, 48 h, at 10 µM
The campaign covered roughly 140,000 compounds. About 710 (0.51%) were called active.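 How the source made its calls: active means inhibition above a set limit, 3 SD over the mean compound inhibition (cut at about 44% in these data); inactive means the rest.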 The entries come from a sample that favours actives as a whole.
Just give me one of these, please: active, inactive

# example entries with known answers
INSERT INTO assay_data (chem_smiles, answer_label) VALUES
  ('COc1ccc(C(=O)NC(=S)NNC(=O)CCc2ccccc2)cc1', 'inactive'),
  ('CN(c1nc2ccccc2n2c(-c3ccco3)nnc12)S(=O)(=O)c1ccccc1', 'inactive');

Short answer needed: outcome of this test for O=C(COC(=O)/C=C/c1cn(-c2ccccc2)nc1-c1cccnc1)Nc1ccc(Cl)cc1Cl ? inactive

Short answer needed: outcome of this test for Cc1cccc(OP(=O)(Nc2c(C)n(C)n(-c3ccccc3)c2=O)Oc2cccc(C)c2)c1 ? inactive

Short answer needed: outcome of this test for COC(=O)Cc1ccc(NC(=S)NCc2ccc(Cl)cc2)cc1 ? inactive

Short answer needed: outcome of this test for Cc1nc(Cl)c2oc3ccccc3c2n1 ? active

====

Assay: growth inhibitors of yeast BB579 in restrictive medium, primary screen, yeast lifespan-shortening project, S. cerevisiae (AID 804)
Conditions: OD615, 48 h, at 10 µM
In all, about 140,000 compounds went through this assay and about 710 (0.51%) were called active.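 How the source made its calls: active means inhibition above a set limit, 3 SD over the mean compound inhibition (cut at about 44% in these data); inactive means the rest.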 The full list was thinned out, with actives kept by preference.
Just give me one of these, please: active, inactive

# example entries with known answers
INSERT INTO assay_data (compound, answer_label) VALUES
  ('Cc1nc2ccc(C(=O)O)cc2[nH]1', 'active'),
  ('O=C(CC(=O)Nc1ccc(Cl)c(Cl)c1)N/N=C/c1ccc(O)cc1', 'inactive'),
  ('CC(CNc1ccc([N+](=O)[O-])c2cccnc12)Nc1c([N+](=O)[O-])cc(C(F)(F)F)cc1[N+](=O)[O-] (stereo unspecified)', 'inactive'),
  ('CCc1cccc(CC)c1NC(=S)NCc1ccc2[nH]c(C)cc2c1', 'active'),
  ('N#C/C(=C(/O)COC(=O)COc1ccc(Cl)cc1)c1nc2ccccc2[nH]1', 'inactive');

Then this compound:
Short answer needed: outcome of this test for COc1ccc(C)cc1NC(=O)C(Sc1ccccc1)c1ccccc1 (stereo unspecified) ? inactive

Origin of values: PubChem BioAssay AID804
